Numbers sourced from the supplement of paper PMC4862054.

For each entry below, report its normalised response value.
# System: HCC1599
# experiment notes: normalised response (% of control), CellTiter-Glo; higher = more viable cells (100 = DMSO, 0 = benzethonium chloride kill control)
# measurement parameters: incubation time: 72 h
Give bare numbers, in %.

- Nc1ccccc1NC(=O)c1ccc(CNc2nccc(-c3cccnc3)n2)cc1 [Mocetinostat] (1000 nM): 81.2
- CC(=O)OC[C@H]1O[C@@H]([S-])[C@H](OC(C)=O)[C@@H](OC(C)=O)[C@@H]1OC(C)=O.CCP(CC)CC.[Au+] [Auranofin] (2.5 nM): 87.5
- c1cc(CN2CCCNCCNCCCNCC2)ccc1CN1CCCNCCNCCCNCC1 [Plerixafor] (1 nM): 105

Below are 7 compounds. Give each one its normalised response.
1. CC/C(=C(\c1ccc(O)cc1)c1ccc(OCCN(C)C)cc1)c1ccccc1 [4-hydroxytamoxifen] (1 nM)
2. O=C1c2c(O)ccc(O)c2C(=O)c2c(NCCNCCO)ccc(NCCNCCO)c21 [Mitoxantrone] (100 nM)
3. Cc1ccc(Nc2nccc(N(C)c3ccc4c(C)n(C)nc4c3)n2)cc1S(N)(=O)=O [Pazopanib] (10 nM)
4. O=C(Nc1c[nH]nc1-c1nc2ccc(CN3CCOCC3)cc2[nH]1)NC1CC1 [AT9283] (100 nM)
5. CCCCC/C=C/C=C1/C(=O)C=C[C@@H]1C/C=C\CCCC(=O)O [15D-PGJ2] (0.08 nM)
6. Cc1c(CN2CCN(C(=O)[C@H](C)O)CC2)sc2c(N3CCOCC3)nc(-c3cnc(N)nc3)nc12 [GDC-0980] (10 nM)
7. Cc1cccc(-c2nn3c(c2-c2ccnc4ccc(C(N)=O)cc24)CCC3)n1 [Galunisertib] (1 nM)

[96, 120, 100, 102, 101, 105, 103]
